Data provenance is patent US20220324835A1.

system: T-cell; assay: CD25 cell surface staining on T-cells stimulated with anti-CD3 antibody alone (Biological Example 2); type: cell-based, human; conditions: T-cell; fold change over baseline; 1 μM Cbl-b inhibitor; primary human total T-cells; read-out: CD25 staining Anti-CD3 stimulation
endpoint.label: fold induction at 1 µM

> print(dat)
                                   compound          endpoint.label     obs.value
1  C[C@H](Cc1nncn1C)c1cccc(NC(=O)c2cc(C(=O)N3CC[C@H](O)C3)cc(C(F)(F)F)n2)c1  fold induction at 1 µM           > 1
2  C[C@H](Sc1nncn1C)c1cccc(NC(=O)c2cccc(C3CC3)n2)c1  fold induction at 1 µM         < 0.6
3  C[C@H](Cc1nncn1C)c1cc(NCCO)nc(N2Cc3c(cccc3C(F)(F)F)C2=O)c1  fold induction at 1 µM  0.601 to 0.8
4  CCOc1cc([C@H](C)Cc2nncn2C)cc(N2Cc3c(cccc3C(F)(F)F)C2=O)n1  fold induction at 1 µM           > 1
5  C[C@H](Cc1nncn1C)c1cccc(N2Cc3c(cc(-c4ccn[nH]4)cc3C(F)(F)F)C2=O)c1  fold induction at 1 µM           > 1

Input line: Please look up its fold induction at 1 µM: Cn1cnnc1CC(C)(F)c1cccc(N2Cc3c(cccc3C(F)(F)F)C2=O)c1 (racemic)
Output line: 0.601 to 0.8

Input line: Look up fold induction at 1 µM: C[C@H](Cc1nncn1C)c1cccc(NC(=O)c2ccnc(C(F)(F)F)n2)c1
Output line: 0.801 to 1

Input line: Consider the compound C[C@H](Cc1nncn1C)c1cccc(NC(=O)c2cccc(C(C)(C)C)n2)c1 and give its measured fold induction at 1 µM.
Output line: 0.801 to 1

* * *

test system: T-cell; experiment: CD25 cell surface staining on T-cells stimulated with anti-CD3 antibody alone (Biological Example 2); format: cell-based, human; details: T-cell; fold change over baseline; 8 μM Cbl-b inhibitor; primary human total T-cells; read-out: CD25 staining Anti-CD3 stimulation
endpoint.label: fold induction at 8 µM

Look over these answered cases.
> print(dat)
                                   compound  study.target   obs.value
1  C[C@H](Sc1nncn1C)c1cccc(NC(=O)c2cccc(C3CC3)n2)c1        T-cell  0.801 to 1
2  Cc1c[nH]nc1C[C@H](C)c1cccc(N2Cc3c(cccc3C(F)(F)F)C2=O)c1 (single isomer, unassigned) [Compound 270a]        T-cell  0.801 to 1
3  C[C@@H](Cc1nncn1C)c1cccc(NC(=O)c2cc(C(=O)N3CC[C@H](O)C3)cc(C3CC3)n2)c1        T-cell       < 0.6

Input line: Given Cc1ccc(C(=O)Nc2cccc(C(C)C(F)(F)c3nncn3C)c2)nc1C1CC1 (centres unmarked) , state its recorded fold induction at 8 µM.
Output line: > 1

Input line: Query (compound): CNc1cc([C@H](C)Cc2nncn2C)cc(N2Cc3c(cccc3C(F)(F)F)C2=O)n1 ; field requested: fold induction at 8 µM
Output line: > 1

Input line: Looking for the measured fold induction at 8 µM of C[C@H](Cc1nncn1C)c1ccnc(N2Cc3c(cccc3C(F)(F)F)C2=O)c1 [Compound 304b] , can you help?
Output line: < 0.6

Input line: // fold induction at 8 µM lookup, key: Cn1cnnc1C(F)(F)[C@](C)(F)c1cccc(NC(=O)c2nc3c(C(F)(F)F)cccc3[nH]2)c1
Output line: 0.601 to 0.8

Input line: Which value of fold induction at 8 µM has been reported for C[C@H](Sc1nncn1C)c1cccc(NC(=O)c2ccc3ccccc3n2)c1 in the records?
Output line: 0.601 to 0.8
